IC50 values by entry
MEASUREMENT NOTES: Antiproliferative activity against human HuH-6 cells assessed as cell growth inhibition measured after 72 hrs by MTT assay
Assay type: functional, cell-based
SETUP CONDITIONS: HuH-6, 72 h
Report the value in nM with no unit label.

Cc1ccc(NC(=O)CCCn2cc(-c3ccc(C(F)(F)F)cc3)nn2)cc1 = 3100

Q: Reported IC50, molecule O=C(CCCn1cc(-c2ccc(C(F)(F)F)cc2)nn1)Nc1ccc(-c2ccccc2)cc1 : ____
Result: 1100

====

Let's look at some molecules and their measured pIC50.
Test system: A549
MEASUREMENT NOTES: Antiproliferative activity against human A549 cells assessed as cell growth inhibition measured after 72 hrs by MTT assay
Assay type: functional, cell-based
SETUP CONDITIONS: A549, 72 h
Note on pIC50: it is the negative log10 of concentration, concentration in mol/L.

Worked cases, answers included:
COC(=O)c1ccc(-n2cc(CCCNC(=O)Nc3ccc(C)cc3)nn2)cc1 = 4.44
COC(=O)c1ccc(-n2cc(CCCC(=O)Nc3ccc(C)cc3)nn2)cc1 = 4.12
Cc1ccc(NC(=O)CCCn2cc(-c3ccc(C(F)(F)F)cc3)nn2)cc1 = 4.60
COC(=O)c1ccc(-n2cc(CCCC(=S)Nc3ccc(C)cc3)nn2)cc1 = 5.10
COC(=O)c1ccc(-n2cc(CCCc3nnc(-c4ccc(C)cc4)o3)nn2)cc1 = 4.19
COC(=O)c1ccc(-n2cc(CCCNC(=S)Nc3ccc(C)cc3)nn2)cc1 = 4.33

Q: What pIC50 appears in the records for this molecule with A549? O=C(CCCn1cc(-c2ccc(C(F)(F)F)cc2)nn1)Nc1ccc(-c2ccccc2)cc1
Result: 4.72

Q: What do we get for COC(=O)c1ccc(-c2cn(CCCC(=S)Nc3ccc(C)cc3)nn2)cc1 ?
Result: 4.30

====

TARGET SYSTEM: 26S proteasome non-ATPase regulatory subunit 10 (Homo sapiens, UniProt O75832)
Sequence (O75832 whole entry): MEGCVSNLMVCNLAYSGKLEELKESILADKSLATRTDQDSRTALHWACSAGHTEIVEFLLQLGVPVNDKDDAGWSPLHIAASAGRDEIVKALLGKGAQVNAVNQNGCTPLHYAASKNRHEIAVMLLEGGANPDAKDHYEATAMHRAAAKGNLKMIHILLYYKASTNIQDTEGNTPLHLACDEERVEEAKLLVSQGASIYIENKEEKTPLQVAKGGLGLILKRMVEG
MEASUREMENT NOTES: Binding affinity to gankyrin (unknown origin) expressed in Escherichia coli BL21 (DE3) expression system assessed as dissociation constant at 1:1 protein to compound concentration by isothermal titration calorimetry
ASSAY READOUT: Kd (nM)
Express your answer in nM, writing the number without its unit.

Q: I have this molecule here, COC(=O)c1ccc(-n2cc(CCCOS(=O)(=O)c3ccc(C)cc3)nn2)cc1 , and I need its recorded Kd.
Result: 532

====

MEASUREMENT NOTES: Metabolic stability in human liver microsomes assessed as compound remaining preincubated for 10 mins followed by NADPH addition measured after 60 mins by HPLC analysis
Assay type: ADME, Microsome
SETUP CONDITIONS: read-out: Stability
ASSAY READOUT: remaining at 1 h (%)
Just the number in %, nothing appended.

The examples below pair each entry with its known result.
Cc1ccc(NC(=O)CCCn2cc(-c3ccc(C(F)(F)F)cc3)nn2)cc1 = 84
COC(=O)c1ccc(-n2cc(CCCOS(=O)(=O)c3ccc(C)cc3)nn2)cc1 = 50
COC(=O)c1ccc(-c2cn(CCCC(=O)Nc3ccc(-c4ccccc4)cc3)nn2)cc1 = 87
FC(F)(F)c1ccc(-c2cn(CCCC(=S)Nc3ccc(-c4ccccc4)cc3)nn2)cc1 = 80
O=C(CCCn1cc(-c2ccc(C(F)(F)F)cc2)nn1)Nc1ccc(-c2ccccc2)cc1 = 60

API: the following record is the query input.
Q: What does the record list as remaining at 1 h for Cc1ccc(NC(=S)CCCn2cc(-c3ccc(C(F)(F)F)cc3)nn2)cc1 ?
Result: 73
